Please provide measured % Change Compared to pH 7.4 + Calcium for the entries that follow.
# Assayed system: T1, recombinant, soluble human ASGR-1 (human, UniProt P07306 62-291)
# T1 construct: biotinylated in the binning assay; also called soluble huASGR-1; Soluble ASGR-1 (Amgen)
# T1 sequence: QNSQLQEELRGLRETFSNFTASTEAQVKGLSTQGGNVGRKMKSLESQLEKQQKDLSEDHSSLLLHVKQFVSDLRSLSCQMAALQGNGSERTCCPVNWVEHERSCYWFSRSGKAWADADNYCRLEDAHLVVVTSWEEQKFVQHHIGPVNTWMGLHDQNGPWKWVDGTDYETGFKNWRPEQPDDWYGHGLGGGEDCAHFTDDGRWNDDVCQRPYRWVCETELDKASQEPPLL
# Experimental protocol: Octet BLI dissociation, pH 7.4 minus calcium
Numbers only, in %.

Answered cases to consult:
# Binder, % Change Compared to pH 7.4 + Calcium (%)
rows = [
    ("192H10 (antibody, V domains shown, hybridoma mAb) VH: QVQLVESGGGVVQPGRSLRLSCAASGFTFSSYGMHWVRQAPGKGLEWVAVIWYDGSNKNYADSVKGRFTISRDNSKNTLYLQMNSLRAEDTAMYYCARDQGVGYDGLDVWGQGTSVTVSS VL: DIQMTQSPSSLSASVGDRVTITCRASQGIGKYLAWFQQKPGKAPKSLIYAASSLQSGVPSKFSGSGYGTDFTLTISSLQPENFATYYCQQYSTYPLTFGGGTKVEIK", 0),
    ("190F12 (antibody, V domains shown, hybridoma mAb) VH: QVQLVESGGGVVQPGRSLRLSCAASGFTFRNYGMHWVRQAPGKGLEWVAVIWFDGSNDYYADSVKGRFTISRDNSKNTLSLQMNSLRAEDTAVYYCARDRSVGYDGLDVWGQGTTVTVSS VL: DIQMTQSPSSLSASVGDRVTITCRASQGIGKYLAWFQQKPGKAPKSLIYAASSLQSGVPSKFSGSGSGTDFTLTISSLQPDDFATYYCQRYDTYPFTFGPGTKVDIK", -1),
]

Now, please, on to the next binder.
**Query** Tell us which % Change Compared to pH 7.4 + Calcium value is on record for 193C7 (antibody, V domains shown, hybridoma mAb) VH: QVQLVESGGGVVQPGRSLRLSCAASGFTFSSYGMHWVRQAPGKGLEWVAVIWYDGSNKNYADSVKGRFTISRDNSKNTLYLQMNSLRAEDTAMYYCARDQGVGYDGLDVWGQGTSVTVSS VL: DIQMTQSPSSLSASVGDRVTITCRASQGIGKYLAWFQQKPGKAPKSLIYAASSLQSGVPSKFSGSGSGTDFTLTISSLQPEDFATYYCQQYSTYPLTFGGGTKVEIK
**Result** -1
